FYI, the data here is from patent US10184116B2.

fold higher activity than native KAZ: recorded values
assay: Luminescence activity of ZZ-fused WNanoKAZ mutants in crude enzyme solution (Example 10); type: biochemical; conditions: coelenterazine substrate, Imax
Supply the numeric figure in fold, leaving out any unit text.

Molecule	Metric	Val
WNanoKAZ-I138Y: single amino acid-substituted WNanoKAZ mutant I138Y; SEQ ID NO: 14 (protein) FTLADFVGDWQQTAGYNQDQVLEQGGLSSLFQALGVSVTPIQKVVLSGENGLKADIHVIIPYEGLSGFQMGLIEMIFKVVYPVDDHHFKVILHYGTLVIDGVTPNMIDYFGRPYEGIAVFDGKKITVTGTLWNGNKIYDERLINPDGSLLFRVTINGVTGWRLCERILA	fold higher activity than native KAZ	8.5
WNanoKAZ-E115P: WNanoKAZ with substitution of proline for glutamic acid at position 115; SEQ ID NO: 10 (protein) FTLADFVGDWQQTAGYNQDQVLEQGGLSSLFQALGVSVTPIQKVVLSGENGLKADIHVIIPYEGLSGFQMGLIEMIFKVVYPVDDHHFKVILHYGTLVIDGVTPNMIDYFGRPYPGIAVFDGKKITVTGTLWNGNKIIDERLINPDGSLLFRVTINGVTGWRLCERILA	fold higher activity than native KAZ	31

Query :: Quick one: fold higher activity than native KAZ of WNanoKAZ: chimeric protein: positions 1-82 of native KAZ and 83-169 of nanoKAZ; SEQ ID NO: 6; I90V, P115E, Q124K, Y138I, N166R (protein, chimeric protein: positions 1-82 of native KAZ and 83-169 of nanoKAZ; I90V, P115E, Q124K, Y138I, N166R) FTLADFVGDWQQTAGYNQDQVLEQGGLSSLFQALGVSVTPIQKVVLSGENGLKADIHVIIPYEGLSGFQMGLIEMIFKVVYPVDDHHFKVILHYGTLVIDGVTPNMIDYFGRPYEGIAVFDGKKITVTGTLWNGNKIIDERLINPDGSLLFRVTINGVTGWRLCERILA ?
Result :: 64

Query :: Quick one: fold higher activity than native KAZ of WNanoKAZ-V90I: single amino acid-substituted WNanoKAZ mutant, valine 90 back to isoleucine; SEQ ID NO: 8 (protein) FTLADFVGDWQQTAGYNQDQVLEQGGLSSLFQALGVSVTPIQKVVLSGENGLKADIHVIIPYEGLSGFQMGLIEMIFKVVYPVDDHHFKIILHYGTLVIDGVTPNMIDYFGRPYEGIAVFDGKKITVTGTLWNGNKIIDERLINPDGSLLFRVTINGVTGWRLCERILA ?
Result :: 34
